assay: NCI Yeast Anticancer Drug Screen. Data for the rad50 strain (AID 155);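 note: 0% = growth of vehicle-only cultures of the same strain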; details: S. cerevisiae rad50 strain growth inhibition; at 50.0 µM (retest, dose inferred, filed as 5.0); hits give high values
The panel holds about 79,000 compounds, 15% with a hit somewhere; the sample as a whole holds those more often.
readout type: growth inhibition (%)

INSERT INTO assay_data (compound, numeric_value) VALUES
  ('CCCC1c2ccc(O)cc2CC1c1ccc(O)cc1 (stereo unspecified)', 99),
  ('Oc1ccc(C2SC(c3ccc(O)cc3)SC(c3ccc(O)cc3)S2)cc1 (stereo unspecified)', 98),
  ('Cc1c(O)c2c(c(O)c1Br)C(=O)C=CC2=O', 96),
  ('O=C1OC2=C(CCc3nc(-c4ccccc4)sc32)C(N(c2ccccc2)c2ccccc2)C1(Cl)Cl (stereo unspecified)', 11),
  ('OC(CCN1CCCCC1)(Cc1ccccc1)c1cccc(Cl)c1 (stereo unspecified)', 46),
  ('CCC[CH2][Ge]([CH2]CCC)([CH2]CCC)[O]C(=O)C(OC(C)=O)c1ccccc1 (stereo unspecified)', 95),
  ('C/C(=N/Nc1ccc([N+](=O)[O-])cc1[N+](=O)[O-])C(=O)O', 69),
  ('O=c1ccn(C2OC(COC(c3ccccc3)(c3ccccc3)c3ccccc3)C(O)C2O)c(=O)[nH]1 (stereo unspecified)', 98),
  ('CCN(CC)c1ccc(Cl)c2c1C(O)(C(C)C)C2(C)C (stereo unspecified)', 96),
  ('CCCCCCCCCCCCCCCC(=O)N1CC[N+](C)(C)CC1', 99),
  ('O=C(O)CSc1nnc2c3ccccc3c3ccccc3c2n1', 70);

---

In this section we review reported growth inhibition values for a set of molecules.
assay: NCI Yeast Anticancer Drug Screen. Data for the sgs1 mgt1 strain (AID 161);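 note: 0% = growth of cultures given vehicle only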; conditions: S. cerevisiae sgs1 mgt1 strain, at 5.0 µM (retest, dose inferred, filed as 0.5), hits give high values
This is part of a sample that, as a whole, favours compounds with a hit. Of some 79,000 tested, about 15% had one in any assay.
readout type: growth inhibition (%)

INSERT INTO measurements (molecule, readout_type, numeric_value) VALUES
  ('CCN1CCC(O)(/C=C/c2ccccc2)C(C(=O)/C=C/c2ccccc2)C1 (configuration not stated)', 'growth inhibition', 13),
  ('Cc1ccc(C2(O)CC(c3ccc([N+](=O)[O-])o3)=NN2C(=O)COc2ccc(Cl)cc2)cc1 (configuration not stated)', 'growth inhibition', 39),
  ('COc1cccc(/C=N/N(C)C)c1O', 'growth inhibition', -2),
  ('O=c1c2cnccc2cc2c3ccccc3ccn12', 'growth inhibition', 9),
  ('CCCCCC(C)NCCOC(=O)c1ccccc1 (configuration not stated)', 'growth inhibition', -8),
  ('CCCCC1=NCCc2c1cc1c([nH]c3ccccc31)c2C', 'growth inhibition', -8),
  ('Nc1ccc2c(c1)[nH]c(=O)c1cc(Cl)c(Cl)cc12', 'growth inhibition', 49),
  ('O=S1(=O)C=C(c2ccccc2)S(=O)(=O)C=C1c1ccccc1', 'growth inhibition', 0),
  ('NC(CSSCC(N)C(=O)Nc1ccc2ccccc2c1)C(=O)Nc1ccc2ccccc2c1 (configuration not stated)', 'growth inhibition', 54),
  ('COc1ccc2c(c1)CCC1OC(c3cccnc3)OC21 (configuration not stated)', 'growth inhibition', -3),
  ('CCC(c1ccc(Cl)cc1)C(C#N)c1ccccc1 (configuration not stated)', 'growth inhibition', 3),
  ('CC(NNC(=S)N1CCCC1)c1ccccn1 (configuration not stated)', 'growth inhibition', 63);
